pEC50 by entry:
test system: MIA PaCa-2; experiment: Cell viability assay, pancreatic cancer cell lines; assay type: cell-based; conditions: Homo sapiens; MIA PaCa-2 (Pancreas); 48 h
pEC50: −log10 of the molar value.
propertyName: pEC50

# molecule, experimentalValue
measured = [
    ("CCN(CCO)CCCC(C)Nc1ccnc2cc(Cl)ccc12 (centres unmarked) [HCQ, hydroxychloroquine]", 4.33),
    ("CCN(CC)C1CCN(C(C)c2cc(-c3ccccc3)nc3ccccc23)CC1.Cl.Cl (centres unmarked) [XIX-3, dihydrochloride]", 4.47),
]

---

tested on: patient derived acute myeloid leukemia (AML) cell lines; test: Cell growth inhibition assay, patient derived AML cells; assay type: cell-based, human; conditions: Patient 13, subtype MLL; 48 h
pEC50: −log10 of the molar value.

# molecule, target, pEC50
data = [
    ("Nc1ccn([C@@H]2O[C@H](CO)[C@@H](O)[C@@H]2O)c(=O)n1 [AraC, cytosine arabinoside, reference compound]", "patient derived acute myeloid leukemia (AML) cell lines", 5.52),
]

---

tested on: HCT-116; assay: EC50 determination in cancer cell lines; type: cell-based, human; details: Homo sapiens, HCT-116, 72 h
Where a name gives a salt, the structure may show the parent alone.
In this section, each of the molecules is paired with its reported EC50.

# molecule, units, EC50
measured = [
    ("Cc1ccc(-c2cc(N3CCC(NC(C)(C)C)CC3)c3ccccc3n2)cc1.Cl.Cl [XIII-8, dihydrochloride]", "µM", 8),
    ("CCN(CC)C1CCN(Cc2cc(-c3ccccc3)nc3cc(Cl)ccc23)CC1 [XVII-6, dihydrochloride]", "µM", 4),
    ("COc1ccc(-c2cc(N3CCC(NC(C)(C)C)CC3)c3ccccc3n2)cc1 [XV-8, dihydrochloride]", "µM", 17),
    ("CN(C)CCCNc1cc(-c2ccc3ccccc3c2)nc2ccccc12 [XLII-2, hydrochloride salt]", "µM", 11),
    ("CN(C)CCCNc1cc(-c2ccccc2)nc2ccccc12 [XL-2, trifluoroacetate salt]", "µM", 5),
    ("Clc1ccc2c(CNC3CCN(Cc4ccccc4)CC3)cc(-c3ccccc3)nc2c1 [XXXIII-2, hydrochloride salt]", "µM", 13),
    ("CN(C)CCCNCc1cc(-c2ccccc2)nc2cc(Cl)ccc12", "µM", 6),
]

---

System: patient derived acute myeloid leukemia (AML) cell lines
Experiment: Cell growth inhibition assay, patient derived AML cells
Format: cell-based, human
Conditions: Patient 12, subtype 5 & 7; 48 h
Experimental: The patient derived acute myeloid leukemia (AML) cells were obtained after written informed consent under the Institut Paoli Calmette (IPC) institutional review board approval and under the strict compliance of the Helsinki declaration on medical research involving human subjects. […] Cell outgrowth was measured using the CellTiter-Glo luminescent cell viability assay as described by the manufacturer (Promega, Ref G7571 Madison, Wis., USA) using a Centro (Berthold, France) plate reader. […]
propertyName: EC50

# compound, propertyName, experimentalValue
data = [
    ("Nc1ccn([C@@H]2O[C@H](CO)[C@@H](O)[C@@H]2O)c(=O)n1 [AraC, cytosine arabinoside, reference compound]", "EC50", "> 40 µM"),
]

---

tested on: PBMC Healthy voluntary donor; assay: Cell growth inhibition assay, PBMC of healthy donors; format: cell-based, human; settings: Homo sapiens, PBMC, PBMC Healthy voluntary donor 2
pEC50: −log10 of the molar value. Counter-ions that a name gives are not always drawn.
Class yes: pEC50 at least 5. Class no: pEC50 below 5.

# compound, qualitativeLabel
rows = [
    ("CC(C)(C)NC1CCN(c2cc(-c3ccc(Cl)c(Cl)c3)nc3ccccc23)CC1 [XIV-8, dihydrochloride]", "no"),
    ("CCN(CC)C1CCN(C(C)c2cc(-c3ccc4ccccc4c3)nc3ccccc23)CC1.Cl.Cl (centres unmarked) [XXIV-3, dihydrochloride]", "yes"),
    ("Cc1ccc(-c2cc(N3CCC(NC(C)(C)C)CC3)c3ccccc3n2)cc1.Cl.Cl [XIII-8, dihydrochloride]", "no"),
    ("CCN(CC)C1CCN(C(C)c2cc(-c3ccccc3)nc3ccccc23)CC1.Cl.Cl (centres unmarked) [XIX-3, dihydrochloride]", "no"),
    ("CC(C)(C)NC1CCN(c2cc(-c3ccc(Cl)cc3)nc3ccccc23)CC1.Cl.Cl [XII-4, dihydrochloride]", "no"),
]

---

tested on: HCT-116; assay: EC50 determination in cancer cell lines; assay type: cell-based, human; conditions: Homo sapiens, HCT-116, 72 h
pEC50: −log10 of the molar value. Where a name gives a salt, the structure may show the parent alone.
Items are presented alongside their recorded pEC50.
propertyName: pEC50

# compound, experimentalValue
measured = [
    ("CCN(CC)C1CCN(c2cc(-c3ccc(-c4ccccc4)cc3)nc3ccccc23)CC1 [IX-2, dihydrochloride]", 5.40),
    ("CCN(CC)C1CCN(C(C)c2cc(-c3ccccc3)nc3ccccc23)CC1.Cl.Cl (centres unmarked) [XIX-3, dihydrochloride]", 4.92),
    ("CCN(CC)C1CCN(c2cc(-c3ccc4ccccc4c3)nc3ccccc23)CC1", 5.22),
    ("CCN(CC)C1CCN(C(C)c2cc(-c3ccccc3)nc3cc(Cl)ccc23)CC1 (centres unmarked) [XVI-4, dihydrochloride]", 5.22),
    ("Clc1ccc2c(NC3CCN(Cc4ccccc4)CC3)cc(-c3ccccc3)nc2c1 [XXVIII-2, hydrochloride salt]", 4.92),
    ("CC(C)(C)NC1CCN(c2cc(-c3ccc(Cl)c(Cl)c3)nc3ccccc23)CC1 [XIV-8, dihydrochloride]", 5.30),
    ("CCN(CC)C1CCN(c2cc(-c3ccccc3)nc3cc(Cl)ccc23)CC1", 5.40),
    ("CCN(CC)C1CCN(C(C)c2cc(-c3ccc4ccccc4c3)nc3ccccc23)CC1.Cl.Cl (centres unmarked) [XXIV-3, dihydrochloride]", 5.40),
]

---

test system: MV4-11; test: EC50 determination in cancer cell lines; assay type: cell-based; conditions: Homo sapiens, 72 h
pEC50: −log10 of the molar value. Where a name gives a salt, the structure may show the parent alone.
propertyName: pEC50

# molecule, experimentalValue
measured = [
    ("CC(C)(C)NC1CCN(c2cc(-c3ccc(Cl)cc3)nc3ccccc23)CC1.Cl.Cl [XII-4, dihydrochloride]", 5.70),
    ("Clc1ccc2c(NC3CCN(Cc4ccccc4)CC3)cc(-c3ccccc3)nc2c1 [XXVIII-2, hydrochloride salt]", 5.30),
    ("Cc1ccc(-c2cc(N3CCC(NC(C)(C)C)CC3)c3ccccc3n2)cc1.Cl.Cl [XIII-8, dihydrochloride]", 5.70),
    ("Clc1ccc2c(CNC3CCN(Cc4ccccc4)CC3)cc(-c3ccccc3)nc2c1 [XXXIII-2, hydrochloride salt]", 5.30),
    ("CC(C)(C)NC1CCN(c2cc(-c3ccc(Cl)c(Cl)c3)nc3ccccc23)CC1 [XIV-8, dihydrochloride]", 5.40),
    ("CCN(CC)C1CCN(C(C)c2cc(-c3ccc4ccccc4c3)nc3ccccc23)CC1.Cl.Cl (stereo not shown) [XXIV-3, dihydrochloride]", 5.52),
    ("CCN(CC)C1CCN(C(C)c2cc(-c3ccccc3)nc3ccccc23)CC1.Cl.Cl (stereo not shown) [XIX-3, dihydrochloride]", 5.05),
]

---

tested on: NB4; assay: CellTiter-Glo cell viability assay (example 57); format: cell-based; settings: Homo sapiens, NB-4; NB4 (Leukemia); Cell Titer-Glo; 72 h
pEC50: −log10 of the molar value.
propertyName: pEC50

# molecule, experimentalValue
measured = [
    ("Nc1ccn([C@@H]2O[C@H](CO)[C@@H](O)[C@@H]2O)c(=O)n1 [Cytarabine]", 7.70),
    ("CCN(CC)C1CCN(C(C)c2cc(-c3ccccc3)nc3ccccc23)CC1.Cl.Cl (stereo not drawn) [XIX-3, dihydrochloride]", 4.43),
    ("CCN(CCO)CCCC(C)Nc1ccnc2cc(Cl)ccc12 (stereo not drawn) [HCQ, hydroxychloroquine]", 4.24),
]

---

Documented EC50 across a set of compounds
tested on: B16F10; test: CellTiter-Glo cell viability assay (example 57); type: cell-based, human; settings: Mus musculus, B16-F10; B16F10 (Melanoma); Cell Titer-Glo; 72 h
propertyName: EC50 (µM)

# compound, propertyName, units, experimentalValue
records = [
    ("CCN(CC)C1CCN(C(C)c2cc(-c3ccccc3)nc3ccccc23)CC1.Cl.Cl (stereo not drawn) [XIX-3, dihydrochloride]", "EC50", "µM", 10),
    ("CCN(CCO)CCCC(C)Nc1ccnc2cc(Cl)ccc12 (stereo not drawn) [HCQ, hydroxychloroquine]", "EC50", "µM", 20),
    ("COc1cccc2c1C(=O)c1c(O)c3c(c(O)c1C2=O)C[C@@](O)(C(=O)CO)C[C@@H]3O[C@H]1C[C@H](N)[C@H](O)[C@H](C)O1 [Doxorubicine, doxorubicin]", "EC50", "µM", 0.2),
]

Measured values drawn from patent US10179770B2 for this set.
